- tested system: FLT3(D835Y) (Homo sapiens, UniProt P36888, D835Y)
- Construct: purchased Eurofins DiscoverX KINOMEscan (scanTK)
- Sequence (P36888 27-993 D835Y): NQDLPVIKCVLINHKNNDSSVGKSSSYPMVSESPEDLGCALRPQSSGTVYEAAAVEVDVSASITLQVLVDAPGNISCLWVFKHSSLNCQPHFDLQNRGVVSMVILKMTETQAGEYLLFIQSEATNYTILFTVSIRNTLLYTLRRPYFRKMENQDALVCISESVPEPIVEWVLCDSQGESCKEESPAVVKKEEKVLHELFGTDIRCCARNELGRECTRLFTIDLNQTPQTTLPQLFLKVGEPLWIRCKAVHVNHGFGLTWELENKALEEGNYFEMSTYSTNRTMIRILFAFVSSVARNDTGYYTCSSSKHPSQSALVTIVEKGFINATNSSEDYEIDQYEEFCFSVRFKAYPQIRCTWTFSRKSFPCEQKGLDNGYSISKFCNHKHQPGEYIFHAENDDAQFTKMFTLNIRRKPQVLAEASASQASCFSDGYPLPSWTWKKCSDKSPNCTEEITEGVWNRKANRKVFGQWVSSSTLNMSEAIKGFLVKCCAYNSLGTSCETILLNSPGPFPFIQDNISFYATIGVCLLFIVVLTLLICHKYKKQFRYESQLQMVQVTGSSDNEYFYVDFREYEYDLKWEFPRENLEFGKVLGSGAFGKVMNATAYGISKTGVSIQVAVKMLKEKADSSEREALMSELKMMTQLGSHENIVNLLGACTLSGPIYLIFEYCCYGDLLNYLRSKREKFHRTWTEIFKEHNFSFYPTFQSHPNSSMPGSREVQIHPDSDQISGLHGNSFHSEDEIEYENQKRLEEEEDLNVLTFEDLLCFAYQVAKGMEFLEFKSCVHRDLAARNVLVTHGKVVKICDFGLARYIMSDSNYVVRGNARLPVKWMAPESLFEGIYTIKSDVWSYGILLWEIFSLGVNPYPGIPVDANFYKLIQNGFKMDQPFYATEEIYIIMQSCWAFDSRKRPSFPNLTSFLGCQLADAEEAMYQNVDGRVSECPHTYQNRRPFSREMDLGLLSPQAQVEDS
- method summary: KINOMEscan ScanTK
- Format: binding
- reported conditions: @1000nM
endpoint: difference in %Control versus compound Ib at 1 µM (%)
Just the number in %, nothing appended.

Look up difference in %Control versus compound Ib at 1 µM with FLT3(D835Y) (Homo sapiens, UniProt P36888, D835Y) for this molecule: Cc1cnc(S(C)(=O)=O)nc1N1CCCC(n2nc(-c3ccc(Oc4ccccc4)cc3)c3c(N)ncnc32)C1 (stereo not shown)
-4

###

- tested system: ABL1(H396P)-nonphosphorylated (Homo sapiens, UniProt P00519, H396P)
- Construct: purchased Eurofins DiscoverX KINOMEscan (scanTK)
- method summary: KINOMEscan ScanTK
- Format: binding
- reported conditions: @1000nM
endpoint: difference in %Control versus compound Ib at 1 µM (%)
Just the number in %, nothing appended.

Use the examples below as a reference point.
[[record]]
compound = "COC(=O)c1cnc(S(C)(=O)=O)nc1N1CCCC(n2nc(-c3ccc(Oc4ccccc4)cc3)c3c(N)ncnc32)C1 (stereo not shown) [Compound 8b]"
u = "%"
value_observed = 55

[[record]]
compound = "Cc1cnc(S(C)(=O)=O)nc1N1CCCC(n2nc(-c3ccc(Oc4ccccc4)cc3)c3c(N)ncnc32)C1 (stereo not shown) [Compound 8a]"
u = "%"
value_observed = 47

[[record]]
compound = "CCOC(=O)c1cnc(S(C)(=O)=O)nc1N1CCC[C@@H](n2nc(-c3ccc(Oc4ccccc4)cc3)c3c(N)ncnc32)C1 [Compound 8c]"
u = "%"
value_observed = 41


Now for a further compound.
Look up difference in %Control versus compound Ib at 1 µM with ABL1(H396P)-nonphosphorylated (Homo sapiens, UniProt P00519, H396P) for this compound: CNC(=O)c1cnc(S(C)(=O)=O)nc1N1CCCC(n2nc(-c3ccc(Oc4ccccc4)cc3)c3c(N)ncnc32)C1 (stereo not shown) [Compound 8d]
28
